Test system: native geph
test.description: µSPOT peptide microarray binding assay with native geph from mouse brain lysate
experimental.conditions: µSPOT peptide microarray, GlyRβ full positional scan, native geph from mouse brain lysate; intensity normalised to wild-type sequence DLRSNDFSIVGSLPR (=1)
measured.parameter: Native geph Binding Intensity [norm.] (norm.)

Some entries whose results are on file:
[[record]]
sequence_entry = "DLRSNFFSIVGSLPR [GlyRβ_Full_Positional_Scan_107]"
measured_parameter = "Native geph Binding Intensity [norm.]"
unit_name = "norm."
recorded_number = 0.34

[[record]]
sequence_entry = "DLRSNDFSEVGSLPR [GlyRβ_Full_Positional_Scan_171, GlyR β 414-428 variant I422E]"
measured_parameter = "Native geph Binding Intensity [norm.]"
unit_name = "norm."
recorded_number = 0.13

[[record]]
sequence_entry = "DLRSNGFSIVGSLPR [GlyRβ_Full_Positional_Scan_102]"
measured_parameter = "Native geph Binding Intensity [norm.]"
unit_name = "norm."
recorded_number = 0.65

[[record]]
sequence_entry = "DLRSNDFSIAGSLPR [GlyRβ_Full_Positional_Scan_181, GlyR β 414-428 variant V423A]"
measured_parameter = "Native geph Binding Intensity [norm.]"
unit_name = "norm."
recorded_number = 0.47


(a) DLRSNDPSIVGSLPR [GlyRβ_Full_Positional_Scan_125, GlyR β 414-428 variant F420P]
(b) DKRSNDFSIVGSLPR [GlyRβ_Full_Positional_Scan_034]
(c) DLRSNDFSIVPSLPR [GlyRβ_Full_Positional_Scan_205, GlyR β 414-428 variant G424P]
Enquiry: List by increasing Native geph Binding Intensity [norm.]. Note for the reader: the ranking is given by listing the labels in the order requested.
Return: c, a, b
